test: TIMS collisional cross section (CCS, N2) of the lipid ion; higher = larger ion cross section; details: sample type: HeLa; ionization mode: positive; one isomer drawn
RESULT_TYPE: TIMS collisional cross section (Å²)

- CCCCCC/C=C\CCCCCCCCCCOC[C@@H](O)COP(=O)([O-])OCC[N+](C)(C)C [LPC O- 18:1] (ion (formula + adduct): [C26H54NO6P+H] 1+): 233.6
- CC/C=C\C/C=C\C/C=C\C/C=C\C/C=C\C/C=C\CCC(=O)OC[C@@H](COC(=O)CCCCCCCCCCCCCCCCC)OC(=O)CCCCCCC/C=C\CCCCCCCC [TG 18:0_18:1_22:6] (ion (formula + adduct): [C61H104O6+NH4] 1+): 333.1
- CC/C=C\C/C=C\C/C=C\C/C=C\C/C=C\C/C=C\CCC(=O)O[C@H](CO/C=C\CCCCCCCCCCCCCCCCCC)COP(=O)([O-])OCC[N+](C)(C)C [PC P- 20:0@_22:6] (ion (formula + adduct): [C50H88NO7P+H] 1+): 304.8
- CCCC/C=C\CCCCCCCC(=O)O[C@@H](COC(=O)CCCCCCC/C=C\CCCCCC)COC(=O)CCCCCCCCCCCC [TG 13:0_14:1_16:1] (ion (formula + adduct): [C46H84O6+NH4] 1+): 293.9
- CCCCCC/C=C\CCCCCCCC(=O)OC[C@@H](COC(=O)CCCCCCCCCCCCCC)OC(=O)CCCCCCCCCCCCCC [TG 15:0_15:0_16:1] (ion (formula + adduct): [C49H92O6+NH4] 1+): 305.9
- CCCCCCCCCCCCCCCCOC[C@H](COP(=O)([O-])OCC[N+](C)(C)C)OC(=O)CCCCCCCCCCCCC [PC O- 16:0@_14:0] (ion (formula + adduct): [C38H78NO7P+H] 1+): 280.8
- CCCCCCCCCCCCC/C=C/[C@@H](O)[C@H](CO[C@@H]1OC(CO)[C@@H](O[C@@H]2OC(CO)[C@H](O)[C@H](O)C2O)[C@H](O)C1O)NC(=O)CCCCCCCCCCCCC (some centres undefined) [GlcCer d18:1_14:0@] (ion (formula + adduct): [C44H83NO13+H] 1+): 297.2
- CC/C=C\C/C=C\C/C=C\C/C=C\C/C=C\CCCC(=O)O[C@H](COC(=O)CCC/C=C\C/C=C\C/C=C\C/C=C\CCCCC)COP(=O)([O-])OCC[N+](C)(C)C [PC 20:4_20:5] (ion (formula + adduct): [C48H78NO8P+H] 1+): 290.3
- CCCC/C=C\CCCCCCCCCCCC(=O)O[C@H](COC(=O)CCCCCCCCCCCCCCCCCCCCC)COP(=O)(O)OCCN [PE 22:0_18:1@] (ion (formula + adduct): [C45H88NO8P+H] 1+): 294.9

Data credit: the supplement of paper PMC6965134
